These data points were gathered from patent US20260115250A1.

target: Low Density Lipoprotein Receptor (LDLR), recombinant (UniProt P01130 22-788); experiment: SPR; HBS + 0.005% P20, DMPC complex
measure: Kd (µM)
Give the value, in units of µM, as a plain number.

Recorded results for 3 binders are shown here.
{"binder": "LVQYRGEVQAMLGQSTEELRVRLASHLRKLRKRLLRDADDLQKRLAVYQA [T-070]", "measure unit": "µM", "Kd": 0.68}
{"binder": "LASHLRKLRKRLLRDADDLQKRLAVYQAGAREGAER [T-046]", "measure unit": "µM", "Kd": 56.3}
{"binder": "LARHLRKLRKRLARSLVSQYFQTVTDYGKDLM [T-066]", "measure unit": "µM", "Kd": 0.11}

Shift focus to the following entry.
Exam item: I am curious: what Kd value has been reported for LASHLRKLRKRLLRDADDLQKRLAVYQA [T-044] ?
Marked response: 1160
